Catalogue of Log potency ratio readings, one per entry.
- tested-target: UniProt P23977
- method: Potency ratio for Cocaine receptor (IC50 cocaine /IC50 compound)
Please reply with the number alone, leaving off any unit.

Would you please look over these solved cases?
>>> reading("C=C(c1ccccc1)C1CC2CCC(C1C(=O)OC)N2C (stereo unspecified)")
0.15
>>> reading("COC(=O)[C@@H]1C2CC[C@H](C[C@H]1/C=C/c1ccccc1)N2C")
1.68
>>> reading("COC(=O)[C@@H]1C2CC[C@H](C[C@H]1c1ccc(-c3ccccc3)cc1)N2C")
0.99
>>> reading("COC(=O)[C@@H]1C2CC[C@H](C[C@@H]1c1ccccc1)N2C")
0.53
>>> reading("COC(=O)[C@@H]1C2CC[C@H](C[C@H]1CCc1ccccc1)N2C")
1.01

Next, consider the following compound.
Incoming: Tell me its Log potency ratio given COC(=O)C1C(c2ccc([N+](=O)[O-])cc2)CC2CCC1N2C (stereo unspecified) as the entry.
Outgoing: 0.006

====

- tested-target: Sodium-dependent dopamine transporter (Rattus norvegicus) (UniProt P23977)
- Sequence (P23977 whole entry): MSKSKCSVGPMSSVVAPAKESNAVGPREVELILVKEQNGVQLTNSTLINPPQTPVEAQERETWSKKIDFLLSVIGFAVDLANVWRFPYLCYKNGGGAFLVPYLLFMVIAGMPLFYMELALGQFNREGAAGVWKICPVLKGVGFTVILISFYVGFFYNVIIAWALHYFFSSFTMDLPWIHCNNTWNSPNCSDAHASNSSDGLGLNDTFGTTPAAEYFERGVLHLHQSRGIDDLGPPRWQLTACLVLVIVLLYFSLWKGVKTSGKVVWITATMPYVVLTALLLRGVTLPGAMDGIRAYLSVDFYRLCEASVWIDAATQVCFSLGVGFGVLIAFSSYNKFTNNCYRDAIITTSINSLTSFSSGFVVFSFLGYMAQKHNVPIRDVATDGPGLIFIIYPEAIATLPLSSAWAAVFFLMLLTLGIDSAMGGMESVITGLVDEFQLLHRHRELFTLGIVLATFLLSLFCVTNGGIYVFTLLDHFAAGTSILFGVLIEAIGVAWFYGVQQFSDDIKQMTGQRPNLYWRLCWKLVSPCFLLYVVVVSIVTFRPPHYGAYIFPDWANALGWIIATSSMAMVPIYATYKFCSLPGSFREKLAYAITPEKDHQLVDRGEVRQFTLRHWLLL
- method: Ability to inhibit binding of [3H]cocaine to Cocaine receptor in rat brain
- Assay type: tissue-based
Please use condition met for Log potency ratio under 0.01 and condition not met for everything else, ties included.

Use the examples below as a reference point.
>>> label_class("COC(=O)[C@H]1[C@@H](c2ccc(F)cc2)C[C@H]2CC[C@H]1N2C")
"condition met"
>>> label_class("COC(=O)[C@@H]1C2CC[C@H](C[C@H]1CCc1ccccc1)N2C")
"condition met"
>>> label_class("COC(=O)[C@H]1C2CC[C@H](C[C@H]1c1ccc3ccccc3c1)N2C")
"condition not met"
>>> label_class("COC(=O)C1C(c2ccc([N+](=O)[O-])cc2)CC2CCC1N2C (stereo not drawn)")
"condition not met"

Incoming: In plain terms, does COC(=O)C1C(CCCc2ccccc2)CC2CCC1N2C (stereo not drawn) come in under 0.01 for Log potency ratio?
Outgoing: condition met

Incoming: In plain terms, does COC(=O)C1C(c2ccc(N)cc2)CC2CCC1N2C (stereo not drawn) come in under 0.01 for Log potency ratio?
Outgoing: condition not met

Incoming: In plain terms, does COC(=O)[C@@H]1C2CC[C@H](C[C@H]1OC(=O)c1ccc3ccccc3c1)N2C come in under 0.01 for Log potency ratio?
Outgoing: condition not met
